Measured values drawn from ChEMBL document CHEMBL1125620 for this set.

target: Serotonin 2 (5-HT2) receptor (Rattus norvegicus, UniProt P30994+P08909+P14842); experiment: Compound was measured for affinity at 5-hydroxytryptamine 2 receptor in rat cortical by [3H]spiroperidol displacement.
Experimental Readout: log10 of IC50 (log10 of the value in µM)
Scale: log10; quantity: IC50; unit before log: µM

Please state, for each entry, its recorded log10 of IC50.
1. O=C1CC2(CCCC2)CC(=O)N1OCCCN1CCN(c2nsc3ccccc23)CC1
2. Cc1cccc(N2CCN(CCCON3C(=O)CC4(CCCC4)CC3=O)CC2)c1C
3. COc1ccccc1N1CCN(CCON2C(=O)CC3(CCCC3)CC2=O)CC1
4. O=C1CC2(CCCC2)CC(=O)N1OCCCN1CCN(c2nc3ccccc3s2)CC1

1: -1.70; 2: -0.60; 3: 0.51; 4: 0.91

Please state, for each entry, its recorded log10 of IC50.
1. COc1ccccc1N1CCN(CCCON2CCC3(CCCC3)CC2=O)CC1
2. O=C1CC2(CCCC2)CCN1OCCCN1CCN(c2nsc3ccccc23)CC1
3. Cc1cccc(N2CCN(CCCON3C(=O)CC4(CCCC4)CC3=O)CC2)c1
4. COc1ccccc1N1CCN(CCCON2C(=O)CC3(CCCC3)CC2=O)CC1
5. O=C1CC2(CCCC2)CC(O)N1OCCCN1CCN(c2nsc3ccccc23)CC1 (stereo unspecified)
6. O=C1CC2(CCCC2)CC(=O)N1OCCN1CCN(c2nsc3ccccc23)CC1

1. 0.43
2. -2.00
3. -0.41
4. 0.08
5. -2.00
6. -0.62
